Assay: UWB1.289 Cancer Cell Toxicity qHTS against the NCATS CANVASS Library (AID 1347347); note: nearly all actives have a fitted effect of over 60% in size; note: potency is the fitted concentration of half-maximal effect
Settings: UWB1.289 viability, CellTiter-Glo luminescence, 72 h; series mostly up to 38.3 µM
Records with an inconclusive call do not appear. Calls of active or inactive are those of the source. Calls come from the whole dose curve; as a rule, active = well fitted cell-killing curve with a large enough effect; inconclusive = small, poorly fitted or top-dose-only effect; inactive = flat fitted curve, though single readings scatter.

compound | Potency
COc1ccc(CCCc2cc(O)c(OC)c(O)c2)c(O)c1O | inactive
CC(C)=CCC[C@@H](C)[C@@H]1CC[C@@]2(C)C[C@H]3C(C)=CC(=O)[C@@H]3/C(C=O)=C\C[C@H]12 | 6.66 µM (active)
CS/C=C/C(N)=O | inactive
C=C1C(=O)O[C@H]2[C@H]1CC/C(CO)=C\CC[C@@]1(C)O[C@@H]21 | 7.47 µM (active)
C=C1C[C@@]23C=CC(=O)[C@@](C)(CCC(=O)Nc4c(O)ccc(C(=O)O)c4O)C2C[C@@H]1CC3O (some centres undefined) | inactive
CC(=O)O[C@@H]1C=C2C(=O)OC[C@]2(O)[C@@]2(C)CCCC(C)(C)[C@H]12 | 10.6 µM (active)
C[C@]12CC[C@]3(C1)[C@H](CC2=O)CC(OC(=O)c1ccccc1)[C@H]1[C@@](CO)(C(=O)O)CCC[C@@]13C (some centres undefined) | inactive
CCCCCC[C@H](CCCCC[C@@H](O)C(N)=O)OC(=O)[C@@H]1CC=CN1C(=O)c1ccccc1O | 6.66 µM (active)
CN1CC[C@]2(c3cccc4c3N[C@@H]3N(C)CC[C@]43[C@@]34CCN(C)[C@@H]3Nc3ccccc34)c3ccccc3N[C@H]12 | 18.8 µM (active)

###

Target: Furin (Homo sapiens) (UniProt P09958)
Sequence (P09958 whole entry, looked up): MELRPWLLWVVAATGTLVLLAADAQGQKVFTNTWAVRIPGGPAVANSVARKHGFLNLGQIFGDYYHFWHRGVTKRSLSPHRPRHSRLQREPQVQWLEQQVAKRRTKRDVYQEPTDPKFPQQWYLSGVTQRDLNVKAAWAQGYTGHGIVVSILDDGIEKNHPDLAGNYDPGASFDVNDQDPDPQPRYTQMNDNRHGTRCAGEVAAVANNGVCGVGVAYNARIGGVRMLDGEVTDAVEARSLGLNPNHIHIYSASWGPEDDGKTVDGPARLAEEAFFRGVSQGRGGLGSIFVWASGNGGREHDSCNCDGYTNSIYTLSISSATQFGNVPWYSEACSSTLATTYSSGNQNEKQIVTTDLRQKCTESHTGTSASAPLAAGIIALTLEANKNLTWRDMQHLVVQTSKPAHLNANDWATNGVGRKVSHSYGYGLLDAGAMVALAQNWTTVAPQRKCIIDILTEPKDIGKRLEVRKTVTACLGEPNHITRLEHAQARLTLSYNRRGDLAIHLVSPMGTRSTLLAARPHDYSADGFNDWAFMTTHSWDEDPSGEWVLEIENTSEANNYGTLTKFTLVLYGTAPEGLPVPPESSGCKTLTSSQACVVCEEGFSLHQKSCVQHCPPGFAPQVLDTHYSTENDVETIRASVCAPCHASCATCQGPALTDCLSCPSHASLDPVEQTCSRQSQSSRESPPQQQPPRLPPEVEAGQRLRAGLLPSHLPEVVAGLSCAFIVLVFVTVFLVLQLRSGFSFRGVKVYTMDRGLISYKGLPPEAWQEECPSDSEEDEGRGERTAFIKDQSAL
Test: Furin counterscreen qHTS for Zika virus inhibitors (AID 1347149); note: nearly all actives have a fitted effect of over 70% in size
Details: furin enzymatic counterscreen, fluorogenic substrate; series mostly up to 114 µM
Records with an inconclusive call do not appear. Activity calls are given as the source filed them. Calls come from the whole dose curve; as a rule, active = well fitted inhibition curve with a large enough effect; inconclusive = small, poorly fitted or top-dose-only effect; inactive = no such curve, though single readings can be large or run the other way.
Classes used: active, inactive

compound | qualitative_label
CCCCc1nn2c(=O)cc(COC(=O)c3ccc(NC(=O)CCc4ccccc4)cc3)nc2s1 | inactive
O=c1oc2ccccc2cc1-c1nnc(Nc2ccc(Cl)cc2Cl)s1 | inactive
O=C(COc1ccc(F)cc1)Nc1ccc(C(=O)OCc2cc(=O)n3nc(C4CC4)sc3n2)cc1 | inactive
O=C(O)COc1ccc(-c2nccc3c2C(=O)N(Cc2cccc(C(F)(F)F)c2)CC(CNC(=O)c2cccc(Cl)c2)O3)cc1 (centres undefined) | inactive
COC(=O)c1c(NC(=O)c2cc3nc(-c4ccc(Br)cc4)cc(C(F)(F)F)n3n2)sc2c1CCCC2 | inactive
COCCOC(=O)c1c(C)n(S(=O)(=O)c2ccc(C)cc2)c2ccc(NS(=O)(=O)c3ccc(C)cc3)cc12 | inactive
CCCc1nn2c(=O)cc(COC(=O)c3ccccc3NC(=O)c3ccc(Cl)cc3)nc2s1 | active
O=C(OCC#CCSc1nnc(-c2cccc3ccccc23)o1)c1ccc(F)c(F)c1 | active
O=C(Nc1ccc(-c2nc3ccccc3s2)c(O)c1)c1ccc(Br)cc1 | inactive

###

Experiment: qHTS Assay for Lipid Storage Modulators (AID 1519)
Settings: Drosophila S3 cells, BODIPY lipid droplet/cell ratio, laser cytometry; measured here: cell count channel max response; cells loaded with oleic acid
Records with an inconclusive call do not appear.
Please respond with Satisfied when measured max response is strictly beneath 20%, and with Not satisfied in all other cases.

molecule | qualitative_label
O=c1c(O)cc(C2Oc3cc(O)cc(O)c3CC2O)cc2c(C3Oc4cc(O)cc(O)c4CC3O)cc(O)c(O)c12 (stereo unspecified) | Satisfied
Cn1cnc2c(NC3CCCC3)ncnc21 | Satisfied
C[C@](N)(COP(=O)(O)O)C(=O)O | Satisfied
C/C=C1\C(=O)CC2C3CCC4=CC(=O)CC[C@]4(C)C3CC[C@]12C (stereo partly specified) | Not satisfied
O=C1C=CC(=O)c2c(O)c(Cl)c(Cl)c(O)c21 | Satisfied
NC(=O)CCCCn1ccc(NC(N)=NCC(F)(F)F)n1 | Satisfied
